- target_system: DNA helicase (UniProt P0ACB1)
- Sequence (P0ACB1 whole entry): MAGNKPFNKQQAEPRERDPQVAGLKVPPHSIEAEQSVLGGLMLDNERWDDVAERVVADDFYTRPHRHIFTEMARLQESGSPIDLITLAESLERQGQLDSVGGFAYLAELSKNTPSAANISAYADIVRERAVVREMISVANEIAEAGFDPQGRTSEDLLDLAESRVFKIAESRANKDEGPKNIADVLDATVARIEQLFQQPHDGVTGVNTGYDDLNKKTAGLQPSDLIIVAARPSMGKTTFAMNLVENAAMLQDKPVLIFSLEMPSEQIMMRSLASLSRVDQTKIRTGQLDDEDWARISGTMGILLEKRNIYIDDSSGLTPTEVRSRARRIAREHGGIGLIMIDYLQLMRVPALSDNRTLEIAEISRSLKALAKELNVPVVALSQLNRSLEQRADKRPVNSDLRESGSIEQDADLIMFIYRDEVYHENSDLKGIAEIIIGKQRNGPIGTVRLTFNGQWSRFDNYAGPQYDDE
- procedure_summary: relative enzymatic activity vs untreated control (fraction); higher = less inhibition
- settings: 100 µM; incubation time: 2 h at 37 C
measurement_name: relative enzymatic activity
One number for each entry.

Sample answers from the record:
compound="Cl.NC1CCN(c2c(F)cc3c(=O)c(C(=O)O)cn(C4CC4)c3c2Cl)C1 (stereo unspecified)" observed=0.622
compound=COC(=O)N/N=C/c1c[n+]([O-])c2ccccc2[n+]1[O-] observed=0.651
compound=CO/N=C(\C(=O)N[C@@H]1C(=O)N2C(C(=O)O)=C(C)CS[C@H]12)c1csc(N)n1 observed=0.628
compound=COc1cc(Cc2cnc(N)nc2N)cc(OC)c1OC observed=0.617

Look up relative enzymatic activity for the entries below, preserving their order.
1. CC1CCc2c(N3CCC(O)CC3)c(F)cc3c(=O)c(C(=O)O)cn1c23 (stereo unspecified)
2. COc1ccc(Cc2cnc(N)nc2N)cc1OC
3. COc1cc2c(cc1OC)C(=O)C(CC1CCN(Cc3ccccc3)CC1)C2.Cl (stereo unspecified)
4. NC[C@H]1O[C@H](O[C@H]2[C@H](O)[C@@H](O[C@H]3O[C@H](CO)[C@@H](O)[C@H](N)[C@H]3O)[C@H](N)C[C@@H]2N)[C@H](N)C[C@@H]1O
5. CCCCCCCCCCCCCCCC[N+](C)(C)C
6. O=c1[nH]c(=O)n([C@H]2C[C@H](O)[C@@H](CO)O2)cc1F

-- reply
0.552
0.508
0.802
0.378
0.0316
0.629

Look up relative enzymatic activity for the entries below, preserving their order.
1. N[C@@H]1CC[C@@H](c2ccc(Cl)c(Cl)c2)c2ccccc21
2. C=CC1=C(C(=O)O)N2C(=O)C(NC(=O)C(=NO)c3csc(N)n3)C2SC1 (stereo unspecified)

-- reply
1: 0.0688; 2: 0.553

---

- target_system: MurD (UniProt P14900)
- Sequence (whole entry): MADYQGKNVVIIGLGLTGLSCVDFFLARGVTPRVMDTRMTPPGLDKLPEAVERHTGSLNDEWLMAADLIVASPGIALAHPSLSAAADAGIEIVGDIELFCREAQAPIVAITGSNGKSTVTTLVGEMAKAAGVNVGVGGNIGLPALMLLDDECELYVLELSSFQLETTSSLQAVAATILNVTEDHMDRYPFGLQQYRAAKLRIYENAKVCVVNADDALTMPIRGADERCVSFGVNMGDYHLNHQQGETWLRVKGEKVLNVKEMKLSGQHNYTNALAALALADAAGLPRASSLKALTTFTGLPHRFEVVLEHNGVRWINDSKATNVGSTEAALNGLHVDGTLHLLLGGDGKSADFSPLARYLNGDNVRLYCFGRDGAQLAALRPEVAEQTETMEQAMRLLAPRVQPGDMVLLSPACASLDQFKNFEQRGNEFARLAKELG
- procedure_summary: relative enzymatic activity vs untreated control (fraction); higher = less inhibition
- settings: 100 µM; incubation time: 2 h at 37 C
true (1) means recorded relative enzymatic activity is 0.6 or above; false (0) means it is below 0.6.

compound=N[C@@H]1CC[C@@H](c2ccc(Cl)c(Cl)c2)c2ccccc21 class="false (0)"
compound=CN(C)c1cc(CNCC(C)(C)C)c(O)c2c1C[C@H]1C[C@H]3[C@H](N(C)C)C(=O)[C@H](C(N)=O)C(=O)[C@@]3(O)C(=O)[C@@H]1C2=O class="false (0)"
compound=CN(C)[C@@H]1C(=O)[C@@H](C(N)=O)C(=O)[C@@]2(O)C(=O)[C@@H]3C(=O)c4c(O)c(NC(=O)CN5CCCC5)cc(F)c4C[C@H]3C[C@@H]12 class="true (1)"
compound=O=C(O)c1cn(C2CC2)c2cc(N3CCNCC3)c(F)cc2c1=O class="false (0)"
compound=CCCCCCCCCCCCCCCC[N+](C)(C)Cc1ccccc1.[Cl-] class="false (0)"

Consider now this further compound.
-- ask I'd appreciate it if you could say whether CN(C)CCC=C1c2ccccc2COc2ccc(CC(=O)O)cc21.Cl has relative enzymatic activity at least equal to 0.6.
-- reply false (0)

---

Hi there, I'd appreciate the recorded relative enzymatic activity for every entry that follows.
- target_system: MurD (UniProt P14900)
- procedure_summary: relative enzymatic activity vs untreated control (fraction); higher = less inhibition
- settings: 100 µM; incubation time: 2 h at 37 C
One number for each entry.

molecule=NCCCC[C@H](NC(=O)[C@@H](NC(=O)[C@H](Cc1c[nH]c2ccccc12)NC(=O)[C@H](CCCCN)NC(=O)[C@H](CCCCN)NC(=O)[C@H](Cc1c[nH]c2ccccc12)NC(=O)[C@H](Cc1c[nH]c2ccccc12)NC(=O)[C@H](CCCCN)NC(=O)[C@@H](N)CCCCN)C(c1ccccc1)c1ccccc1)C(N)=O observed=0.568

Look up relative enzymatic activity for the entries below, preserving their order.
1. COC1C=COC2(C)Oc3c(C)c(O)c4c(O)c(c(C=NN5CCN(C)CC5)c(O)c4c3C2=O)NC(=O)C(C)=CC=CC(C)C(O)C(C)C(O)C(C)C(OC(C)=O)C1C (configuration not stated)
2. CO/N=C(\C(=O)N[C@@H]1C(=O)N2C(C(=O)O)=C(CSC(=O)c3ccco3)CS[C@H]12)c1csc(N)n1
3. CO/N=C1\CN(c2nc3c(cc2F)c(=O)c(C(=O)O)cn3C2CC2)C[C@@H]1CN
4. O=C([O-])CCC(=O)OCC(NC(=O)C(Cl)Cl)C(O)c1ccc([N+](=O)[O-])cc1.[Na+] (configuration not stated)

-- reply
1. 0.175
2. 0.125
3. 0.572
4. 0.578

Look up relative enzymatic activity for the entries below, preserving their order.
1. CCn1nc(C(=O)O)c(=O)c2cc3c(cc21)OCO3
2. CC1C(NC(=O)C(=NOC(C)(C)C(=O)O)c2csc(N)n2)C(=O)N1S(=O)(=O)O (configuration not stated)
3. COC1=C(OC)C(=O)C(CCCCCCCCCC[P+](c2ccccc2)(c2ccccc2)c2ccccc2)=C(C)C1=O
4. COC1(NC(=O)Cc2cccs2)C(=O)N2C(C(=O)[O-])=C(COC(N)=O)CSC21.[Na+] (configuration not stated)
5. O=c1[nH]c(=O)n(C2CC(O)C(CO)O2)cc1F (configuration not stated)
6. O=C1OCCN1N=Cc1ccc([N+](=O)[O-])o1

-- reply
[0.61, 0.589, 0.162, 0.574, 0.597, 0.565]

Look up relative enzymatic activity for the entries below, preserving their order.
1. Cn1sccc1=O
2. CCN1CCN(C(=O)NC(C(=O)NC2C(=O)N3C(C(=O)O)=C(CSc4nnnn4C)CSC23)c2ccc(O)cc2)C(=O)C1=O (configuration not stated)
3. O=C(O)P(=O)(O)O
4. CN(C)[C@@H]1C(=O)[C@@H](C(N)=O)C(=O)[C@@]2(O)C(=O)[C@H]3C(=O)c4c(O)ccc(Cl)c4[C@@H](O)[C@H]3C[C@@H]12
5. Nc1ncn(C2OC(CO)C(O)C2O)c(=O)n1 (configuration not stated)
6. C[C@H]1[C@H](NC(=O)/C(=N\OC(C)(C)C(=O)O)c2csc(N)n2)C(=O)N1S(=O)(=O)O

-- reply
[0.579, 0.546, 0.6, 0.621, 0.61, 0.623]

---

- target_system: DNA ligase (UniProt B1XA82)
- Sequence (B1XA82 whole entry): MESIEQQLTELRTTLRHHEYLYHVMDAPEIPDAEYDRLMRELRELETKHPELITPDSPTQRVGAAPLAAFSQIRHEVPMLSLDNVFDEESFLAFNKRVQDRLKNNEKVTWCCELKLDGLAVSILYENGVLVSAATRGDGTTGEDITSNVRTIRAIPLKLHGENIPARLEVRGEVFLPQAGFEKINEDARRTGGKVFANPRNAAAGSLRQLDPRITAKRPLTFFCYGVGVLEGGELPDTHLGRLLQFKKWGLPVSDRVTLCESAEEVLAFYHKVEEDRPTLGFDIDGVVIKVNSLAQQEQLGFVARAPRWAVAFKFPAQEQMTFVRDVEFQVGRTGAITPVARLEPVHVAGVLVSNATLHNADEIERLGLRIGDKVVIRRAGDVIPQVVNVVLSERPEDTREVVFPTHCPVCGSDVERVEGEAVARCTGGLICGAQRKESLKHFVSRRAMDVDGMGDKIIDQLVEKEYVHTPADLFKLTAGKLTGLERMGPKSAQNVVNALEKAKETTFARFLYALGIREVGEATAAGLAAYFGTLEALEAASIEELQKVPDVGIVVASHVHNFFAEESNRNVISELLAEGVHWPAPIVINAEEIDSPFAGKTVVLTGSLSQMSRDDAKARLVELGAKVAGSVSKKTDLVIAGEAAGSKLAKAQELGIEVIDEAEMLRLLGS
- procedure_summary: relative enzymatic activity vs untreated control (fraction); higher = less inhibition
- settings: 100 µM; incubation time: 2 h at 37 C
Dear colleague, classification is by relative enzymatic activity, with ranges listed here: band 1: < 0.9; band 2: ≥ 0.9 and < 1; band 3: ≥ 1

compound="CN(C)C1C(O)=C(C(N)=O)C(=O)C2(O)C(O)=C3C(=O)c4c(O)ccc(Cl)c4C(C)(O)C3CC12.Cl (centres undefined)" class="band 3"
compound=N[C@@H](C(=O)N[C@@H]1C(=O)N2C(C(=O)O)=C(Cl)CC[C@H]12)c1ccccc1 class="band 2"
compound=CCCCCCCCCCCCC[N+](C)(C)Cc1ccccc1 class="band 2"
compound=CC(C)[C@@H](CC[C@@H](C)[C@H]1CC[C@H]2[C@@H]3[C@H](O)C[C@H]4C[C@@H](NCCCNCCCCN)CC[C@]4(C)[C@H]3CC[C@]12C)OS(=O)(=O)O class="band 1"
compound="O=C(NC(CO)C(O)c1ccc([N+](=O)[O-])cc1)C(Cl)Cl (centres undefined)" class="band 2"

-- ask Exercise: read the entry CCn1cc(C(=O)O)c(=O)c2cc(F)c(N3CCN(C(=S)Nc4cc(C(F)(F)F)ccc4Cl)CC3)cc21 and state which class it falls under.
-- reply band 1

-- ask Exercise: read the entry Cc1scc2c1N(C(=O)CN1CCN(C)CC1)c1ccccc1NC2=O.Cl and state which class it falls under.
-- reply band 3

-- ask Exercise: read the entry Cl.N=C(N)n1cccn1 and state which class it falls under.
-- reply band 3

Entry source: the supplement of paper PMC9446081
